The measured values listed here are drawn from the nanobody polyreactivity screen of Harvey et al. (2022).

# EXPERIMENT_NOTES: yeast display, Sf9 membrane polyspecificity reagent, FACS + sequencing; frameworks hold sequencing errors
ENDPOINT_LABEL: polyreactivity (PSR sort gate)

QVQLVESGGGLVQAGGSLRLSCAASGRIFYQNAMGWYRQAPGKERELVADISSGGSTYYADSVKGRFTISRDNAKNTVYLQMNSLKPEDTAVYYCNTPSGPGTVGSYRRKWYGYWGQGTQVTVSS; low polyreactivity
QVQLVESGGGLVQAGGSLRLSCAASGLILDGYAMGWYRQAPGKERELVAAITRSGGRTYYADSVKGRFTISRDNAKNTVYLQMNSLKPEDTAVYYCAALGWSGRYSYDYWGQGTQVTVSS; high polyreactivity
QVQLVESGGGLVQAGGSLRLSCAASGSTFPYNAMGWYRQAPGKERELVAAITSDDTTNYADSVKGRFTISRDNAKNTVYLQMNSLKPEDTAVYYCAAEYRYPYLRGAGDYWGQGTQVTVSS; low polyreactivity
QVQLVESGGVLVQAGGSLRLSCAASGSTFYRYAMGWYRQAPGKERELVAANTRGSRTYYADSVKGRFTISRDNAKNTVYLQMNSLKPEDTAVYYCAAYRDYGSYGSWGQGTQVTVSS; high polyreactivity
